Tested on: Saccharomyces cerevisiae
Test: protein stability index of tFT-peptide fusion (C-terminal peptide) (PSI (0-1 scale)); higher = more stable (slower turnover)
Details: genetic background: wild type; temperature: 30 C
Assay metric: protein stability index

- Ordered residues: "SHAALGNETNSL [YHR052C-B C-terminal 12 aa]"
  Assay metric: "protein stability index"
  Measured: 0.684
- Ordered residues: "QTDNTSATNQLL [YSP2 C-terminal 12 aa]"
  Assay metric: "protein stability index"
  Measured: 0.701
- Ordered residues: "WSPLHAAKRHRI [MRPL51 C-terminal 12 aa]"
  Assay metric: "protein stability index"
  Measured: 0.695
- Ordered residues: "KGRALENLPDES [SSM4 C-terminal 12 aa]"
  Assay metric: "protein stability index"
  Measured: 0.692
- Ordered residues: "IPTSFFFFNSIV [YKL123W C-terminal 12 aa]"
  Assay metric: "protein stability index"
  Measured: 0.305
- Ordered residues: "EFLQIMKARISK [SEC24 C-terminal 12 aa]"
  Assay metric: "protein stability index"
  Measured: 0.716
- Ordered residues: "FKITTEHGTTQQ [CRT10 C-terminal 12 aa]"
  Assay metric: "protein stability index"
  Measured: 0.685
- Ordered residues: "KAKSRREGTTRT [STU2 C-terminal 12 aa]"
  Assay metric: "protein stability index"
  Measured: 0.694
- Ordered residues: "TASQILKFEGRI [GRE2 C-terminal 12 aa]"
  Assay metric: "protein stability index"
  Measured: 0.695
- Ordered residues: "EKAKKSLSKMFS [CPR6 C-terminal 12 aa]"
  Assay metric: "protein stability index"
  Measured: 0.693

Which protein stability index value is on record for SRGQNTHPSVDK [ESC1 C-terminal 12 aa] ?
0.692

And ASSSDRPTVAAT [RRT5 C-terminal 12 aa] ?
0.681

###

Tested on: Saccharomyces cerevisiae
Test: protein stability index of tFT-peptide fusion (C-terminal peptide) (PSI (0-1 scale)); higher = more stable (slower turnover)
Details: genetic background: wild type; temperature: 30 C
Assay metric: protein stability index
Just the number, please, no unit after it.

// solved cases for protein stability index follow
- Ordered residues: "PLGLPLPCPFLL"
  protein stability index: 0.683
- Ordered residues: "KYNKSRRGKIKT"
  protein stability index: 0.697
- Ordered residues: "GGKLNRAGRATG"
  protein stability index: 0.697
- Ordered residues: "KSASIGTTLRNL"
  protein stability index: 0.699

Which protein stability index value is on record for `YWGGWWGGWEIG` ?
0.689

And `KEKIGIQIKKKR` ?
0.675

And `VCAASAGGARAG` ?
0.621

And `TSKHLTQRKESK` ?
0.659

And `FGCSRRERKGRG` ?
0.826

And `KNFGHQGDVCRR` ?
0.734

And `SVAPRPPFPFAI` ?
0.694

And `ICWVSLYFSMLV` ?
0.406

And `KLFWYLDCKLLY` ?
0.579

And `SPYLGSALPPDR` ?
0.628

And `PQPHLLRPPPHS` ?
0.674

###

System: Saccharomyces cerevisiae
Test: protein stability index of tFT-peptide fusion (C-terminal peptide) (PSI (0-1 scale)); higher = more stable (slower turnover)
Details: genetic background: wild type; temperature: 30 C
Label criterion met when protein stability index is at or above 0.7; anything below gets criterion not met.

- Ordered residues: "GVFFVRAGSVYC"
  Class assignment: "criterion not met"

Test whether the sequence `DEGLLPLPAVIP` records protein stability index of 0.7 or higher.
criterion met

And `SLLFVFVSVGCI` ?
criterion not met

And `ARSSHVLQRSKV` ?
criterion not met

And `VPPPLRPLPPPP` ?
criterion not met

And `GGSHVWKFYRNF` ?
criterion not met

And `SSVCLYWCCLFV` ?
criterion not met

And `VSPLDSPASLYS` ?
criterion not met

And `GCCCVMNQLRRR` ?
criterion met

And `DRRTGRAGEMSP` ?
criterion not met

And `PRGVLSCPVFAP` ?
criterion met

And `VPGFARLFGLLD` ?
criterion met

And `GGGVSSEWSGCR` ?
criterion not met

And `VCGGVWGGDNGG` ?
criterion met

And `GGSRGVGASEEC` ?
criterion not met

And `PPPTPPPPRPLL` ?
criterion met

And `LRSPCALVLLLI` ?
criterion not met

And `VLVVLVVCRRAE` ?
criterion not met

And `ELVGLAHVLELA` ?
criterion not met

And `RSCAGGVGAVFF` ?
criterion met

And `RGVCVVGGCWLV` ?
criterion not met

And `PPPDTPSPPSSL` ?
criterion not met

And `WKNTNSLRAPAL` ?
criterion not met

And `TGMYHSQPYPAA` ?
criterion not met

And `GEWRHVFSVTRC` ?
criterion met

And `SCLHRDLSDTCQ` ?
criterion not met

###

System: Saccharomyces cerevisiae
Test: protein stability index of tFT-peptide fusion (C-terminal peptide) (PSI (0-1 scale)); higher = more stable (slower turnover)
Settings: genetic background: wild type; temperature: 30 C
Label yes when protein stability index is at or above 0.6; anything below gets no.

These recorded examples may help you get a feel for the data.
- Ordered residues: "TALQNAAPRTAS"
  Class assignment: "yes"
- Ordered residues: "DSSLCFAGLHNT"
  Class assignment: "yes"
- Ordered residues: "GGFLLRGLFLFL"
  Class assignment: "no"
- Ordered residues: "LPLALSAPPAQP"
  Class assignment: "yes"
- Ordered residues: "GRCVCVLFWHVS"
  Class assignment: "no"
- Ordered residues: "LIRVSPDVNITA"
  Class assignment: "yes"
- Ordered residues: "KDEVESGRGLIS"
  Class assignment: "yes"
- Ordered residues: "SLLAVITSFPLR"
  Class assignment: "yes"

Test whether the sequence `PISRRVIFCLQT` records protein stability index of 0.6 or higher.
yes

###

Test system: Saccharomyces cerevisiae
Assay: protein stability index of tFT-peptide fusion (C-terminal peptide) (PSI (0-1 scale)); higher = more stable (slower turnover)
Conditions: genetic background: wild type; temperature: 30 C
Assay metric: protein stability index
Just the number, please, no unit after it.

// solved cases for protein stability index follow
- Ordered residues: "LSSSVIFALPLP"
  Measured: 0.767
- Ordered residues: "SLREEATLVRAR"
  Measured: 0.563
- Ordered residues: "VSGDPWMWDVFI"
  Measured: 0.746
- Ordered residues: "WGGGGLRVSCGT"
  Measured: 0.687
- Ordered residues: "AFLVGYSGVGYV"
  Measured: 0.687

Which protein stability index value is on record for `TGWASWVSVCLI` ?
0.559

And `CTLVSREHFGFL` ?
0.685

And `LPVSISIGNVGR` ?
0.627

###

System: Saccharomyces cerevisiae
Assay: protein stability index of tFT-peptide fusion (C-terminal peptide) (PSI (0-1 scale)); higher = more stable (slower turnover)
Details: genetic background: wild type; temperature: 30 C
Label 1 when protein stability index is at or above 0.6; anything below gets 0.

These recorded examples may help you get a feel for the data.
- Ordered residues: "VLVFYFCFSFCS"
  Class assignment: 0
- Ordered residues: "SAVWWDRLDIRK"
  Class assignment: 1

Test whether the sequence `FVLARLTYSILI` records protein stability index of 0.6 or higher.
0

And `YHDVRSLGPSRT` ?
1

And `VSGGRLVGWGGW` ?
1

And `RNVFVPFMRGSP` ?
1

And `TYNVVKSMVDNK` ?
1

And `LCAETGVGPGLW` ?
1

And `VSLALYSSVSIC` ?
0

###

System: Saccharomyces cerevisiae
Assay: protein stability index of tFT-peptide fusion (C-terminal peptide) (PSI (0-1 scale)); higher = more stable (slower turnover)
Conditions: genetic background: wild type; temperature: 30 C
Assay metric: protein stability index
Just the number, please, no unit after it.

- Ordered residues: "MGGDATSLKRLV"
  protein stability index: 0.703
- Ordered residues: "CRWLAKRVKDSS"
  protein stability index: 0.629
- Ordered residues: "YRLRAFLSMTQQ"
  protein stability index: 0.616
- Ordered residues: "EVPLGLIRLPSV"
  protein stability index: 0.695
- Ordered residues: "VIKRQSERRYLV"
  protein stability index: 0.587

Please provide the recorded protein stability index for `PPPPPLPPRSCL` , tested on Saccharomyces cerevisiae.
0.703

And `TFINVHRFCSAI` ?
0.647

And `PSPHHHYTPPST` ?
0.681

And `VRPCLYPCSRTV` ?
0.708

And `PPPPPPPHSPLS` ?
0.685

###

Test system: Saccharomyces cerevisiae
Assay: protein stability index of tFT-peptide fusion (C-terminal peptide) (PSI (0-1 scale)); higher = more stable (slower turnover)
Settings: genetic background: das1 deletion; temperature: 30 C
Note that class boundaries on protein stability index are 1 = under 0.3, 2 = from 0.3 up to 0.6, 3 = 0.6 and over

These recorded examples may help you get a feel for the data.
- Ordered residues: "RWSEHGFLVFLS"
  Class assignment: 3
- Ordered residues: "LPPSTFLLHFLL"
  Class assignment: 3
- Ordered residues: "LRFSLLRVGWLC"
  Class assignment: 2
- Ordered residues: "VFCSVGVSLFFG"
  Class assignment: 1
- Ordered residues: "RFFFASRYIECF"
  Class assignment: 1
- Ordered residues: "CAGRQGRERGHT"
  Class assignment: 3
- Ordered residues: "AGALAVALPCIC"
  Class assignment: 2
- Ordered residues: "FRVFYSFLLCLS"
  Class assignment: 1
- Ordered residues: "PATPPLRFPPSA"
  Class assignment: 3
- Ordered residues: "CGLYNQFCLFLY"
  Class assignment: 2

Please indicate the class for `PLHPSSTPATPF` based on its protein stability index.
3

And `FFVLGPVVMSIH` ?
1

And `FWCVFVFFVCVG` ?
1

And `ICQLLKFPLFWC` ?
2

And `HFLRYCSWFGLL` ?
3

And `LGFFIFSFLILK` ?
1

And `WSFAPRLRCSYL` ?
3
